Target: membrane receptors of pituitary of male rats (Rattus norvegicus, UniProt P30969)
Construct: from tissue; host or cells: pituitary of male rats (membranes)
Sequence (P30969 1-327): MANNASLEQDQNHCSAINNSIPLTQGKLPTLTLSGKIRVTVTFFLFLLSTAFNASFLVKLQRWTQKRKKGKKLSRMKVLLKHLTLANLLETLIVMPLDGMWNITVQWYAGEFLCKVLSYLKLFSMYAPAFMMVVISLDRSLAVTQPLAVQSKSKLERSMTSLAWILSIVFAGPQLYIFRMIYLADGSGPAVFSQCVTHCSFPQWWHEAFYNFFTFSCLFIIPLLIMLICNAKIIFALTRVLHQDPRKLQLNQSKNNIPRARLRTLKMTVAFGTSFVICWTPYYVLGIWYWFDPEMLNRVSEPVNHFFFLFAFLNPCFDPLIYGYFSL
Test: Binding affinity for membrane receptors of rat pituitary using 125I-labeled [D-Trp6]LHRH
Details: Table 2, high affinity binding sites
measurement_kind: Binding affinity, Ka1, for membrane receptors of pituitary (nM⁻¹)

>>> print(df.to_string())
                                  substance  numeric_result
0  Ac-D-Nal(2)-D-Phe(4Cl)-D-Pal(3)-Ser-Arg-D-Lys[(Ni^++)(SAL)2 (DL-A2 pr)]-Leu-Arg-Pro-D-Ala-NH2 [XIII]           1.821
1  Ac-D-Nal(2)-D-Phe(4 Cl)-D-Trp-Ser-Arg-D-Lys[(Cu^++)(POL)2 (DL-A2 pr)]-Leu-Arg-Pro-D-Ala-NH2 [Example XXIII]           7.622
2  Ac-D-Nal(2)-D-Phe(4Cl)-D-Trp-Ser-Arg-D-Lys[(Ni^++)(SAL)2 (DL-A2 pr)]-Leu-Arg-Pro-D-Ala-NH2 [Example XV]           8.676
3  Ac-D-Nal(2)-D-Phe(4Cl)-D-Trp-Ser-Arg-D-Lys[(Cu^++)(POLP)2 (DL-A2 pr)]-Leu-Arg-Pro-D-Ala-NH2 [Example XXII]           2.901
4  Ac-D-Nal(2)-D-Phe(4Cl)-D-Trp-Ser-Arg-D-Lys[(Cu^++)(SAL)2 (DL-A2 pr)]-Leu-Arg-Pro-D-Ala-NH2 [XII]           9.183
5  Ac-D-Nal(2)-D-Phe(4Cl)-D-Pal(3)-Ser-Arg-D-Lys[(Cu^++)(POLP)2 (DL-A2 pr)]-Leu-Arg-Pro-D-Ala-NH2 [Example XX]           5.250
6  Ac-D-Nal(2)-D-Phe(4Cl)-D-Pal(3)-Ser-Arg-D-Lys[(Cu^++)(POL)2 (DL-A2 pr)]-Leu-Arg-Pro-D-Ala-NH2 [XXIV]           5.483

====

substances and their reported Hormonal activity, LH responses rel. to LHRH (= 1)
Test system: dispersed rat pituitary cell superfusion system
Assay: LH release in dispersed rat pituitary cell superfusion system (agonistic activity)
Format: cell-based
Conditions: Table 1; peptide infused 3 min, LH released compared to 3 nM LHRH
measurement_kind: Hormonal activity, LH responses rel. to LHRH (= 1)

In [3]: df
Out[3]:
                                  substance                              assay_target  result
0  pGlu-His-Trp-Ser-Tyr-D-Lys[(Cu^++)(SAL)2 (DL-A2 bu)]-Leu-Arg-Pro-Gly-NH2 [XIV]  dispersed rat pituitary cell superfusion system      25
1  pGlu-His-Trp-Ser-Tyr-D-Lys[(Cu^++)(CISAL)2 (DL-A2 pr)]-Leu-Arg-Pro-Gly-NH2 [Example IX]  dispersed rat pituitary cell superfusion system      10
2  pGlu-His-Trp-Ser-Tyr-D-Lys[(Cu^++)(POL)2 (DL-A2 bu)]-Leu-Arg-Pro-Gly-NH2 [XXV]  dispersed rat pituitary cell superfusion system     5.5
3  pGlu-His-Trp-Ser-Tyr-D-Lys[(Cu^++)(SAL)2 (A2 pr)]-Leu-Arg-Pro-Gly-NH2 [Example VII]  dispersed rat pituitary cell superfusion system      10

// provenance: patent US5258492A
